Molecular target: sigma receptors
Assay: Inhibition of ^3H-DTG binding to sigma receptors in rat brain in vitro
Conditions: Table I; 2 nM ^3H-DTG, rat brain without cerebellum, 25° C., 20 min
Where a name gives a salt, the structure may show the parent alone.
Recorded measurements of IC50, one per entry
Give the value, in units of nM, as a plain number.

Solved entries (count: 4):
### Prompt Under sigma receptors: IC50 value of c1ccc2c(c1)COCC21CCN(CCCCN2CCC3(CC2)COCc2ccccc23)CC1 ?
### Response 8.7

### Prompt Return IC50 measured with sigma receptors given this molecule: c1ccc2c(c1)CSC21CCN(CCCCN2CCC3(CC2)SCc2ccccc23)CC1
### Response 0.04

### Prompt Item: c1ccc2c(c1)COC21CCN(CCOCCN2CCC3(CC2)OCc2ccccc23)CC1 [Compound 10a, dihydrochloride] Test system: sigma receptors Read-out: IC50 Value: ?
### Response 2.5

### Prompt Which IC50 is reported with sigma receptors for this entry: FC(F)(F)c1ccc2c(c1)C1(CCN(CCCCN3CCC4(CC3)OCc3ccc(C(F)(F)F)cc34)CC1)OC2 [Compound 1j, dihydrochloride] ?
### Response 19

Read the next record carefully.
### Prompt Lab note: need IC50 with sigma receptors for entry c1ccc2c(c1)CCC21CCN(CCCCN2CCC3(CCc4ccccc43)CC2)CC1 , please look it up.
### Response 3.1

These entries and their values trace back to patent US5684012A.
